Recorded values, source patent US20240368181A1.

System: DMS-114 (FGFR1 overexpression) cells
Assay: cell proliferation assay (CellTiterGlo), DMS-114 cells
Assay type: cell-based
Conditions: Homo sapiens, DMS-114, 72 h
Method: In some embodiments, the biological assay assess the ability of the compounds to inhibit cell proliferation. In some embodiments, cells (e.g., SNU-16 (FGFR2-amplification) cells) may be suspended and dispensed in plates. […] In some embodiments, to determine the IC50 values, the vehicle-treated cells were normalized as viable cells and the growth was analyzed using a software (e.g., the CDD Vault software (Collaborative Drug Discovery, Burlingame, CA)).
OUTCOME MEASURE: IC50

[[record]]
compound = "Cc1nc2ccc(Oc3ccc4ncc(-c5cnn([C@H]6C[C@H](N7CC(O)C7)C6)c5)nc4c3Cl)cc2[nH]1"
value_reported = "100 to 400 nM"

[[record]]
compound = "Cc1nc2ccc(Oc3ccc4ncc(-c5cnn([C@H](C)C6CC(F)(F)C6)c5)nc4c3Cl)c(F)c2[nH]1"
value_reported = "100 to 400 nM"

[[record]]
compound = "CC(=O)N1CCN(C(=O)Cn2cc(-c3cnc4ccc(Oc5ccc6nc(C)[nH]c6c5)c(Cl)c4n3)cn2)CC1"
value_reported = "≥ 400 nM"

[[record]]
compound = "Cc1nc2ncc(Oc3ccc4ncc(-c5cnn(C6CCC(F)(F)CC6)c5)nc4c3Cl)cc2[nH]1"
value_reported = "≥ 400 nM"

[[record]]
compound = "Cc1nc2ccc(Oc3ccc4ncc(-c5cnn(C6CN(c7ccccn7)C6)c5)nc4c3Cl)cc2[nH]1"
value_reported = "≥ 400 nM"

[[record]]
compound = "Cc1nc2ccc(Oc3ccc4ncc(-c5cnn(C6CN(C(F)(F)F)C6)c5)nc4c3Cl)cc2[nH]1"
value_reported = "≥ 400 nM"

[[record]]
compound = "COC1CC(Cn2cc(-c3cnc4ccc(Oc5ccc6nc(C)[nH]c6c5)c(Cl)c4n3)cn2)C1 (stereo not shown)"
value_reported = "≥ 400 nM"

